What % inhibition at 100 µM was measured for each of the following?
- measured on: Chymotrypsin, from human pancreas (human, UniProt P17538 19-263)
- Sequence (P17538 19-263): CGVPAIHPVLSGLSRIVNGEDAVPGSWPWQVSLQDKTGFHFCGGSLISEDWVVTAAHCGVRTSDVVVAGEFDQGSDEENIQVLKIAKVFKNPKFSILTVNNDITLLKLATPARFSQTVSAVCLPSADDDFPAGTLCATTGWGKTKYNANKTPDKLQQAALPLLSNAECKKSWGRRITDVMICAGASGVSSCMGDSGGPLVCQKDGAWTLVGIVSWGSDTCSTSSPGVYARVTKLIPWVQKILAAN
- experiment summary: cell-based or functional assay
Give bare numbers, in %.

# annotated cases, reported % inhibition at 100 µM shown
binder: XCTASXPPQCY (HELM PEPTIDE1{[Nle].C.T.A.S.[Cha].P.P.Q.C.Y.[dP].P}$PEPTIDE1,PEPTIDE1,2:R3-10:R3|PEPTIDE1,PEPTIDE1,1:R1-13:R2$$$V2.0; SMILES CCCC[C@@H]1NC(=O)[C@@H]2CCCN2C(=O)[C@H]2CCCN2C(=O)[C@H](Cc2ccc(O)cc2)NC(=O)[C@@H]2CSSC[C@H](NC1=O)C(=O)N[C@@H]([C@@H](C)O)C(=O)N[C@@H](C)C(=O)N[C@@H](CO)C(=O)N[C@@H](CC1CCCCC1)C(=O)N1CCC[C@H]1C(=O)N1CCC[C@H]1C(=O)N[C@@H](CCC(N)=O)C(=O)N2) [Example 82]
unit of measure: %
% inhibition at 100 µM: 72.9

binder: XCTKSDPPICD (HELM PEPTIDE1{[O=C([C@@H](N[*:1])C1CCCCC1)[*:2]].C.T.K.S.D.P.P.I.C.D.[dP].P}$PEPTIDE1,PEPTIDE1,2:R3-10:R3|PEPTIDE1,PEPTIDE1,1:R1-13:R2$$$V2.0; SMILES CC[C@H](C)[C@@H]1NC(=O)[C@@H]2CCCN2C(=O)[C@@H]2CCCN2C(=O)[C@H](CC(=O)O)NC(=O)[C@H](CO)NC(=O)[C@H](CCCCN)NC(=O)[C@H]([C@@H](C)O)NC(=O)[C@@H]2CSSC[C@H](NC1=O)C(=O)N[C@@H](CC(=O)O)C(=O)N1CCC[C@@H]1C(=O)N1CCC[C@H]1C(=O)N[C@@H](C1CCCCC1)C(=O)N2) [Example 39]
unit of measure: %
% inhibition at 100 µM: 7

binder: FCTKSEPPICT (HELM PEPTIDE1{F.C.T.K.S.E.P.P.I.C.T.[dP].P}$PEPTIDE1,PEPTIDE1,2:R3-10:R3|PEPTIDE1,PEPTIDE1,1:R1-13:R2$$$V2.0; SMILES CC[C@H](C)[C@@H]1NC(=O)[C@@H]2CCCN2C(=O)[C@@H]2CCCN2C(=O)[C@H](CCC(=O)O)NC(=O)[C@H](CO)NC(=O)[C@H](CCCCN)NC(=O)[C@H]([C@@H](C)O)NC(=O)[C@@H]2CSSC[C@H](NC1=O)C(=O)N[C@@H]([C@@H](C)O)C(=O)N1CCC[C@@H]1C(=O)N1CCC[C@H]1C(=O)N[C@@H](Cc1ccccc1)C(=O)N2) [Example 1]
unit of measure: %
% inhibition at 100 µM: 7.8

binder: ICTKSDPPYCR (HELM PEPTIDE1{I.C.T.K.S.D.P.P.Y.C.R.[dP].P}$PEPTIDE1,PEPTIDE1,2:R3-10:R3|PEPTIDE1,PEPTIDE1,1:R1-13:R2$$$V2.0; SMILES CC[C@H](C)[C@@H]1NC(=O)[C@@H]2CCCN2C(=O)[C@H]2CCCN2C(=O)[C@H](CCCNC(=N)N)NC(=O)[C@@H]2CSSC[C@H](NC1=O)C(=O)N[C@@H]([C@@H](C)O)C(=O)N[C@@H](CCCCN)C(=O)N[C@@H](CO)C(=O)N[C@@H](CC(=O)O)C(=O)N1CCC[C@H]1C(=O)N1CCC[C@H]1C(=O)N[C@@H](Cc1ccc(O)cc1)C(=O)N2) [Example 18]
unit of measure: %
% inhibition at 100 µM: 25

Next item in the queue.
INPUT: Requested read-out: % inhibition at 100 µM. Entry: RCTKSDPPICF (HELM PEPTIDE1{R.C.T.K.S.D.P.P.I.C.F.[dP].P}$PEPTIDE1,PEPTIDE1,2:R3-10:R3|PEPTIDE1,PEPTIDE1,1:R1-13:R2$$$V2.0; SMILES CC[C@H](C)[C@@H]1NC(=O)[C@@H]2CCCN2C(=O)[C@@H]2CCCN2C(=O)[C@H](CC(=O)O)NC(=O)[C@H](CO)NC(=O)[C@H](CCCCN)NC(=O)[C@H]([C@@H](C)O)NC(=O)[C@@H]2CSSC[C@H](NC1=O)C(=O)N[C@@H](Cc1ccccc1)C(=O)N1CCC[C@@H]1C(=O)N1CCC[C@H]1C(=O)N[C@@H](CCCNC(=N)N)C(=O)N2) [Example 75]
OUTPUT: 7.8

Reference source: patent US20140213531A1
